Record form. Attribute: IC50 at 72 h. Fill in for each entry.
- Protocol Details: Antiproliferative activity against human L02 cells assessed as inhibition of cell growth measured after 72 hrs by CCK-8 method
- Assay type: toxicity, cell-based
Number in µM, nothing else.

Input: # get_value(readout='IC50 at 72 h', item= CC(ONC(=O)c1cc(C(F)(F)F)cc(C(F)(F)F)c1)C(=O)Nc1ccc(Cl)cc1 (configuration not stated) )
Output: 30.4

Input: # get_value(readout='IC50 at 72 h', item= N#Cc1cccc(CN2CCC=C(C(=O)NCc3ccc(C(F)(F)F)cc3)C2)c1 )
Output: 64.1

---

- Protocol Details: MRT (0 to 12hrs) in Sprague-Dawley rat at 10 mg/kg, po by LC-MS/MS analysis
- Format: ADME, organism-based
- Test Conditions: in vivo
Parameter: MRT last (h)
Number in h, nothing else.

Input: # get_value(readout='MRT last', item= N#Cc1cccc(CN2CCC=C(C(=O)NCc3ccc(C(F)(F)F)cc3)C2)c1 )
Output: 6.7

Origin of the recorded values: ChEMBL document CHEMBL5528050
